Value source: ChEMBL document CHEMBL1961873

- test target: Casein kinase I isoform gamma-3 (Homo sapiens) (UniProt Q9Y6M4);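 note: mean inhibition of CK1-g3, GSK PKIS screen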
- Sequence (Q9Y6M4 whole entry, looked up, canonical isoform): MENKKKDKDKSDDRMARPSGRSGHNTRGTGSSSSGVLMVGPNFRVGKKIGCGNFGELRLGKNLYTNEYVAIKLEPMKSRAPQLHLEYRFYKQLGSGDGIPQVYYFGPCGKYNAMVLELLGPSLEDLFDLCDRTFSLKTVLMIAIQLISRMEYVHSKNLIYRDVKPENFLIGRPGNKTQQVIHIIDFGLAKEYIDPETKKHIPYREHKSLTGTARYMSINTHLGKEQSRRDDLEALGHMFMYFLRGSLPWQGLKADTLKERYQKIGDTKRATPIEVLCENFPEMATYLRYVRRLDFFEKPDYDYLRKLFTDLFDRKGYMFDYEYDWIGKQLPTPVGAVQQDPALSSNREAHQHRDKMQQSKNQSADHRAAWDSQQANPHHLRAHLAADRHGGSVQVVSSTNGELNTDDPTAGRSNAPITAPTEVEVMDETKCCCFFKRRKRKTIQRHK
- condition set: at 1 µM
measured metric: inhibition (%)
Report the value in % with no unit label.

(Q) Which value of inhibition has been reported for Nc1ncc(-c2cccc(S(N)(=O)=O)c2)c2scc(-c3ccc(F)c(Cl)c3)c12 in the records?
(A) 4.97

(Q) Which value of inhibition has been reported for Cc1cccc2c1NC(=O)/C2=N\Nc1ccc(S(N)(=O)=O)cc1 in the records?
(A) 1.98

(Q) Which value of inhibition has been reported for CS(=O)(=O)CCNCc1ccc(-c2ccc3ncnc(Nc4ccc(OCc5ccccc5)c(C(F)(F)F)c4)c3c2)o1 in the records?
(A) 2.56

(Q) Which value of inhibition has been reported for COc1cc2ncn(-c3cc(OCc4ccccc4C(F)(F)F)c(C(=O)N(C)C)s3)c2cc1OC in the records?
(A) 0.6

(Q) Which value of inhibition has been reported for CCn1c(-c2nonc2N)nc2cnc(Oc3cccc(NC(=O)c4ccc(N(C)C)cc4)c3)cc21 in the records?
(A) 0.52

(Q) Which value of inhibition has been reported for CC(=O)Nc1cccc(C#Cc2cncnc2Nc2ccc(OCc3cccc(F)c3)c(Cl)c2)c1 in the records?
(A) 1.12

(Q) Which value of inhibition has been reported for Nc1nc(-c2ccc(F)cc2)c(-c2ccc3ncccc3n2)s1 in the records?
(A) 16.9

(Q) Which value of inhibition has been reported for Fc1cccc(COc2ccc(Nc3ncnc4sc(-c5ccco5)cc34)cc2Cl)c1 in the records?
(A) 3.97

(Q) Which value of inhibition has been reported for COc1ccc(CNC(=O)c2ccc(-c3cc(-c4nnc(C)o4)ccc3C)cc2)cc1 in the records?
(A) 0.83

(Q) Which value of inhibition has been reported for COc1cccc(-n2ncc3c(N/N=C/c4ccc(F)cc4)ncnc32)c1 in the records?
(A) 3.4

(Q) Which value of inhibition has been reported for CC(C)COC(=O)c1ccc2c(c1)/C(=C/Nc1ccc(S(N)(=O)=O)cc1)C(=O)N2 in the records?
(A) 20.6

(Q) Which value of inhibition has been reported for COC(=O)c1sc(-n2cnc3cc(OC)c(OC)cc32)cc1OCc1ccccc1C(F)(F)F in the records?
(A) 2.94

(Q) Which value of inhibition has been reported for Cc1ccc2c(-c3ccnc(Nc4ccccc4)n3)c(-c3ccc(F)cc3)nn2n1 in the records?
(A) 51.5

(Q) Which value of inhibition has been reported for CNC(=O)c1cncc(/C=C/c2ccccc2Cl)c1 in the records?
(A) -0.89

(Q) Which value of inhibition has been reported for CCCN(CCS(C)(=O)=O)Cc1ccc(-c2ccc3ncnc(Nc4ccc(OCc5cccc(F)c5)c(Cl)c4)c3c2)o1 in the records?
(A) 1.11

(Q) Which value of inhibition has been reported for NS(=O)(=O)c1ccc(N/N=C2\C(=O)Nc3ccc4ncccc4c32)cc1 in the records?
(A) 12.7

(Q) Which value of inhibition has been reported for Fc1ccc(-c2nn3ncccc3c2-c2ccnc(Nc3ccc4c(c3)OCCO4)n2)cc1 in the records?
(A) 76.1

(Q) Which value of inhibition has been reported for CNC(=O)c1cccc(C#Cc2cncnc2Nc2ccc(OCc3cccc(F)c3)c(Cl)c2)c1 in the records?
(A) 0.88

(Q) Which value of inhibition has been reported for COc1cc(/C=N/Nc2ncnc3[nH]ncc23)ccc1O in the records?
(A) 20

(Q) Which value of inhibition has been reported for N#Cc1c(NC(=O)CN2CCOCC2)sc2c1CCCC2 in the records?
(A) 6.07
